- System: 996289-038-R-J1-PDC spheroid viability
- run_description: Anticancer human tumor 996289-038-R-J1-PDC patient-derived colon adenocarcinoma cell line growth inhibition [PI3K]
- condition_notes: second compound 0.316 µM; first compound 0.00949 µM; hits give low values; spheroids with HUVEC and MSC
Here, each record is paired with measured viability, T/C data.

{"columns": ["molecule", "viability, T/C [%]"],
 "data": [
  ["Cn1cnc2c(F)c(Nc3ccc(Br)cc3Cl)c(C(=O)NOCCO)cc21 + CC(Nc1ccc2c(c1)OCCn1cc(N3C(=O)OCC3C(F)F)nc1-2)C(N)=O", 60.6],
  ["Cn1cnc2c(F)c(Nc3ccc(Br)cc3Cl)c(C(=O)NOCCO)cc21 + Cc1nc(NC(=O)N2CCCC2C(N)=O)sc1-c1ccnc(C(C)(C)C(F)(F)F)c1", 76.2],
  ["Cn1cnc2c(F)c(Nc3ccc(Br)cc3Cl)c(C(=O)NOCCO)cc21 + COc1c(OCCCN2CCOCC2)ccc2c3n(c(=NC(=O)c4cnc(N)nc4)nc12)CCN3", 34.1],
  ["Cn1cnc2c(F)c(Nc3ccc(Br)cc3Cl)c(C(=O)NOCCO)cc21 + CC(Nc1ncnc2nc[nH]c12)c1cc2cccc(Cl)c2c(=O)n1-c1ccccc1", 108]
]}

----------
- Test system: 996289-038-R-J1-PDC spheroid viability
- run_description: Anticancer human tumor 996289-038-R-J1-PDC cell line growth inhibition [PI3K];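 note: luminescence used as a proxy for viable cell amount; spheroids exposed to compounds for seven days before viability read; percent viability relative to DMSO vehicle control as 100%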
- condition_notes: second compound 1 µM; first compound 10 µM; hits give low values; spheroids with HUVEC and MSC
Here, each record is paired with measured viability, T/C data.

{"columns": ["compound", "target_or_system", "viability, T/C [%]"],
 "data": [
  ["CC(C)NCC(C(=O)N1CCN(c2ncnc3c2C(C)CC3O)CC1)c1ccc(Cl)cc1 (stereo not given) + Cc1nc(NC(=O)N2CCCC2C(N)=O)sc1-c1ccnc(C(C)(C)C(F)(F)F)c1", "996289-038-R-J1-PDC spheroid viability", 51],
  ["CC1(C)CCC(Nc2ncc(C(F)(F)F)c(-c3c[nH]c4c(P(C)(C)=O)c(C#N)ccc34)n2)CN1 (stereo not given) + CC(Nc1ccc2c(c1)OCCn1cc(N3C(=O)OCC3C(F)F)nc1-2)C(N)=O", "996289-038-R-J1-PDC spheroid viability", 19.9],
  ["C=CC(=O)N1CCN(c2nc(=O)n(-c3c(C)ccnc3C(C)C)c3nc(-c4c(O)cccc4F)c(F)cc23)C(C)C1 (stereo not given) + COc1c(OCCCN2CCOCC2)ccc2c3n(c(=NC(=O)c4cnc(N)nc4)nc12)CCN3", "996289-038-R-J1-PDC spheroid viability", 20.7],
  ["C=CC(=O)N1CCN(c2nc(=O)n(-c3c(C)ccnc3C(C)C)c3nc(-c4c(O)cccc4F)c(F)cc23)C(C)C1 (stereo not given) + CC(Nc1ccc2c(c1)OCCn1cc(N3C(=O)OCC3C(F)F)nc1-2)C(N)=O", "996289-038-R-J1-PDC spheroid viability", 67.7],
  ["CCCS(=O)(=O)Nc1ccc(F)c(C(=O)c2c[nH]c3ncc(-c4ccc(Cl)cc4)cc23)c1F + CC(Nc1ccc2c(c1)OCCn1cc(N3C(=O)OCC3C(F)F)nc1-2)C(N)=O", "996289-038-R-J1-PDC spheroid viability", 12.1]
]}
